- TEST_SYSTEM: His6-AspH315–758 (human aspartate/asparagine-β-hydroxylase, AspH) (Homo sapiens, UniProt Q12797)
- Construct: N-Terminally His6-tagged human AspH315–758 (His6-AspH315–758) was produced in E. coli BL21 (DE3) cells; made in house; host or cells: E. coli BL21 (DE3), pET-28a(+) vector
- PROTOCOL: SPE-MS AspH inhibition assay (LOPAC screen at fixed 20 μM and IC50 dose-response), hydroxylation of cyclic peptide hFX-CP101–119
- Format: biochemical
- TEST_PARAMETERS: plate 5 (Pfitzer), test compounds at fixed 20 μM
Where a name gives a salt, the structure may show the parent alone.
RESULT_TYPE: Plate 5 (% inhibition) (%)
One number for each entry, in %.

Before answering, review these 2 worked examples.
>  <MOLECULE>
CC(C)c1c(C(=O)Nc2ccccc2)c(-c2ccccc2)c(-c2ccc(F)cc2)n1CC[C@@H](O)C[C@@H](O)CC(=O)O [Atorvastatin calcium salt trihydrate]

>  <Plate 5 (% inhibition) [%]>
17.18

$$$$
>  <MOLECULE>
N[C@@H]1[C@H]2CN(c3nc4c(cc3F)c(=O)c(C(=O)O)cn4-c3ccc(F)cc3F)C[C@@H]12 [Trovafloxacin]

>  <Plate 5 (% inhibition) [%]>
-0.64

$$$$

Incoming: What Plate 5 (% inhibition) value was documented for this molecule, CS(=O)(=O)c1cccc(CNc2nc(Nc3ccc4c(c3)CCC(=O)N4)ncc2C(F)(F)F)c1 [PF-573228] ?
Outgoing: 7.79

###

- TEST_SYSTEM: His6-AspH315–758 (human aspartate/asparagine-β-hydroxylase, AspH) (Homo sapiens, UniProt Q12797)
- Construct: N-Terminally His6-tagged human AspH315–758 (His6-AspH315–758) was produced in E. coli BL21 (DE3) cells; made in house; host or cells: E. coli BL21 (DE3), pET-28a(+) vector
- Sequence (Q12797 315-758): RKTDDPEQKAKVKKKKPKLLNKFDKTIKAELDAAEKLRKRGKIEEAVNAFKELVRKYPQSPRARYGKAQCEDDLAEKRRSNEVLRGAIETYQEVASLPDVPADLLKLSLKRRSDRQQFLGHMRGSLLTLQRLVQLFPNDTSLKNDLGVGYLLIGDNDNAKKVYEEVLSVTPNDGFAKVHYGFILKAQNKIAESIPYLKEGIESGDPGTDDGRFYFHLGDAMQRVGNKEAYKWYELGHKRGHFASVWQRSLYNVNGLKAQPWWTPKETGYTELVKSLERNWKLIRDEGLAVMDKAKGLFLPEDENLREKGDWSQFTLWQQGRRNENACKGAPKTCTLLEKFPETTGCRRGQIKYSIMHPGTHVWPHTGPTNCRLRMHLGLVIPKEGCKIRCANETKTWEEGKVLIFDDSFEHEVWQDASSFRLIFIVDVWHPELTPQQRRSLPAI
- PROTOCOL: SPE-MS AspH inhibition assay (LOPAC screen at fixed 20 μM and IC50 dose-response), hydroxylation of cyclic peptide hFX-CP101–119
- Assay type: biochemical
- TEST_PARAMETERS: plate 5 (Pfitzer), test compounds at fixed 20 μM
Could you please report measured Plate 5 (% inhibition) for the items listed next?
# answer = value followed by unit

Before answering, review these 3 worked examples.
>  <SMILES_STR>
CO[C@H]1C[C@@H]2CC[C@@H](C)[C@@](O)(O2)C(=O)C(=O)N2CCCC[C@H]2C(=O)O[C@H]([C@H](C)C[C@@H]2CC[C@@H](OC(=O)C(C)(CO)CO)[C@H](OC)C2)CC(=O)[C@H](C)/C=C(\C)[C@@H](O)[C@@H](OC)C(=O)[C@H](C)C[C@H](C)/C=C/C=C/C=C/1C

>  <Plate 5 (% inhibition)>
52.39%

$$$$
>  <SMILES_STR>
c1cnc2cc3c(cc2n1)[C@@H]1CNC[C@H]3C1

>  <Plate 5 (% inhibition)>
75.86%

$$$$
>  <SMILES_STR>
CCN(CC)CCOc1ccc(Nc2ncc3cc(-c4c(Cl)cccc4Cl)c(=O)n(C)c3n2)cc1

>  <Plate 5 (% inhibition)>
-31.63%

$$$$

Items follow; give Plate 5 (% inhibition) for each.
1. Cn1cc(-c2[nH]c3cc(NC(=O)[C@H](N)C4CCCCC4)cc4c3c2C=NNC4=O)cn1
2. C[C@@H](c1ncncc1F)[C@](O)(Cn1cncn1)c1ccc(F)cc1F
3. N#C/C(=C\c1cn(-c2ccccc2)c2ccccc12)C(=O)O
4. CCOC(=O)N1c2ccc(C(F)(F)F)cc2[C@@H](N(Cc2cc(C(F)(F)F)cc(C(F)(F)F)c2)C(=O)OC)C[C@H]1CC
5. NS(=O)(=O)c1ccc(-n2nc(C(F)(F)F)cc2-c2ccc(Cl)cc2)cc1
6. C[C@@H]1CCN(C(=O)N2CCCC2)C[C@@H]1N(C)c1ncnc2[nH]ccc12
7. O=S(=O)(N[C@H](CO)C(C(F)(F)F)C(F)(F)F)c1ccc(Cl)s1

Outgoing:
-92.31%
-1.65%
37.56%
13.93%
-23.50%
16.28%
5.55%

Items follow; give Plate 5 (% inhibition) for each.
1. Cc1cc(Nc2ncc3cc(-c4c(Cl)cccc4Cl)c(=O)n(C)c3n2)ccc1F
2. C[C@@H](Oc1cc(-c2cnn(C3CCNCC3)c2)cnc1N)c1c(Cl)ccc(F)c1Cl
3. Cc1[nH]c(/C=C2\C(=O)Nc3ccc(S(=O)(=O)Cc4c(Cl)cccc4Cl)cc32)c(C)c1C(=O)N1CCC[C@@H]1CN1CCCC1
4. CCCCN(CC)c1nc(C)nc2c1c(C)cn2-c1c(C)cc(C)cc1C

Outgoing:
["46.58%", "-31.92%", "-100.36%", "-9.05%"]

Incoming: What Plate 5 (% inhibition) value was documented for this compound, O=C(Nc1cccnc1)N1CCC(Cc2cccc(Oc3ccc(C(F)(F)F)cn3)c2)CC1 ?
Outgoing: -5.26%

###

- TEST_SYSTEM: His6-AspH315–758 (human aspartate/asparagine-β-hydroxylase, AspH) (Homo sapiens, UniProt Q12797)
- Construct: N-Terminally His6-tagged human AspH315–758 (His6-AspH315–758) was produced in E. coli BL21 (DE3) cells; made in house; host or cells: E. coli BL21 (DE3), pET-28a(+) vector
- PROTOCOL: SPE-MS AspH inhibition assay (LOPAC screen at fixed 20 μM and IC50 dose-response), hydroxylation of cyclic peptide hFX-CP101–119
- Format: biochemical
- TEST_PARAMETERS: AspH activity; fixed compound concentration 20 μM; initial LOPAC screen; 0.5%v/v DMSO; read-out: Inhibition at 20 µM [%]
Could you please report measured inhibition at 20 µM for the items listed next?
Numbers only, in %.

>  <COMPOUND>
O=c1cc(-c2ccc(O)cc2)oc2cc(O)cc(O)c12 [Apigenin, reference compound]

>  <UOM>
%

>  <inhibition at 20 µM>
95.8

$$$$
>  <COMPOUND>
O=c1c(O)c(-c2ccc(O)c(O)c2)oc2cc(O)cc(O)c12 [quercetin, reference compound]

>  <UOM>
%

>  <inhibition at 20 µM>
97.8

$$$$
>  <COMPOUND>
O=C(/C=C/c1ccc(O)cc1)CC(=O)/C=C/c1ccc(O)cc1 [Bisdemethoxycurcumin, reference compound]

>  <UOM>
%

>  <inhibition at 20 µM>
99.7

$$$$
>  <COMPOUND>
Oc1ccc(C2CNCCc3c2cc(O)c(O)c3Cl)cc1 (centres unmarked) [Fenoldopam bromide, reference compound]

>  <UOM>
%

>  <inhibition at 20 µM>
98.3

$$$$

Now consider the entry below.
Incoming: What inhibition at 20 µM value was documented for this compound, Oc1cc2c(cc1O)CN(C(=S)NCCc1ccc(Cl)cc1)CCC2 [Capsazepine, capsazepine, reference compound] ?
Outgoing: 99.7

###

- TEST_SYSTEM: His6-AspH315–758 (human aspartate/asparagine-β-hydroxylase, AspH) (Homo sapiens, UniProt Q12797)
- Construct: N-Terminally His6-tagged human AspH315–758 (His6-AspH315–758) was produced in E. coli BL21 (DE3) cells; made in house; host or cells: E. coli BL21 (DE3), pET-28a(+) vector
- Sequence (Q12797 315-758): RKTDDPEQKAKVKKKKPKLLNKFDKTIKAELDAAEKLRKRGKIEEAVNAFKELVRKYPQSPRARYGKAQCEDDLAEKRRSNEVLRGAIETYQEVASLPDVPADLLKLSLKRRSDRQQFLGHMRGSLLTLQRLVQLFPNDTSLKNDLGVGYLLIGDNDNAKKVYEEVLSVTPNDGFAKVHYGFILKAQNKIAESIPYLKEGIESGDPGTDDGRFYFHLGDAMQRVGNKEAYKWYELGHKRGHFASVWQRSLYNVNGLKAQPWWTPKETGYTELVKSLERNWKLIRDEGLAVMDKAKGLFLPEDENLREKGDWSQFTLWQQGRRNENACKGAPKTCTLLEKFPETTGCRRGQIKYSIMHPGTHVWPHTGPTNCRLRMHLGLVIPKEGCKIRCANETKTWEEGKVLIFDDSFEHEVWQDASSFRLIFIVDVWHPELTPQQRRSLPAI
- PROTOCOL: SPE-MS AspH inhibition assay (LOPAC screen at fixed 20 μM and IC50 dose-response), hydroxylation of cyclic peptide hFX-CP101–119
- Type: biochemical
Structures can show the parent of a compound that is named as a salt.
RESULT_TYPE: Plate 3 (% conversion) (%)
Numbers only, in %.

Before answering, review these 5 worked examples.
>  <MOLECULE>
Nc1nc2ccc(Cl)cc2n2c(-c3ccccc3)nnc12 [CP-66713]

>  <Plate 3 (% conversion), %>
39.27

$$$$
>  <MOLECULE>
CC(C)NCC(O)COc1cccc2ccccc12.Cl (racemic) [(±)-Propranolol hydrochloride]

>  <Plate 3 (% conversion), %>
40.68

$$$$
>  <MOLECULE>
O=C1OC(=O)[C@H]2[C@@H]1[C@@H]1CC[C@H]2O1 [Norcantharidin]

>  <Plate 3 (% conversion), %>
35.60

$$$$
>  <MOLECULE>
COc1ccc(OC)c(C(O)C(C)N)c1 (centres unmarked) [Methoxamine hydrochloride]

>  <Plate 3 (% conversion), %>
32.85

$$$$
>  <MOLECULE>
CC(=O)O[C@H]1C[C@@H]2CC[C@@H]3[C@H](CC[C@@]4(C)[C@H]3C[C@H]([N+]3(C)CCCCC3)[C@@H]4OC(C)=O)[C@@]2(C)C[C@@H]1[N+]1(C)CCCCC1 [Pancuronium bromide]

>  <Plate 3 (% conversion), %>
37.93

$$$$

Items follow; give Plate 3 (% conversion) for each.
1. CCCCCCCC/C=C\CCCCCCCC(=O)NCc1ccc(O)c(OC)c1 [Olvanil]
2. Ic1ccccc1CNC1C2CCN(CC2)C1C(c1ccccc1)c1ccccc1.O=C(O)C(=O)O [L-703,606 oxalate salt hydrate]
3. Cl.Cl.Cn1cnc(CCN)c1 [1-Methylhistamine dihydrochloride]
4. Cc1cccc(C#Cc2ccccc2)n1.Cl
5. NS(=O)(=O)c1nn2cc(-c3ccccc3)nc2s1 [AEG 3482]
6. OC[C@H]1O[C@H]([S-])[C@H](O)[C@@H](O)[C@@H]1O.[Au+] [Aurothioglucose]

Outgoing:
40.29
12.64
37.48
40.82
35.73
23.41
